The entries below come with measured pKd values attached.
Target: T1, Avi-tag Fc with human IL-2R beta and IL-2R gamma attached (Acrobiosystems ACRB-ILG-H82F3-25UG) (human, UniProt P14784 27-239; P31785 23-262)
T1 construct: Bought; attached to the SAX2 biosensor; also called CD122 CD132; IL-2R βγ; not shown: Fc and Avi-tag
T1 sequence (looked up) 1: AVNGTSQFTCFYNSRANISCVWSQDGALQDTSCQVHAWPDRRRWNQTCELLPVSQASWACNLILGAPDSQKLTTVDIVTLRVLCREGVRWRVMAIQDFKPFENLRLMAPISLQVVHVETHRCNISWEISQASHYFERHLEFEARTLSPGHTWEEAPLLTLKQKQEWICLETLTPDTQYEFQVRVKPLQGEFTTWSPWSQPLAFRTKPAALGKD
T1 sequence (looked up) 2: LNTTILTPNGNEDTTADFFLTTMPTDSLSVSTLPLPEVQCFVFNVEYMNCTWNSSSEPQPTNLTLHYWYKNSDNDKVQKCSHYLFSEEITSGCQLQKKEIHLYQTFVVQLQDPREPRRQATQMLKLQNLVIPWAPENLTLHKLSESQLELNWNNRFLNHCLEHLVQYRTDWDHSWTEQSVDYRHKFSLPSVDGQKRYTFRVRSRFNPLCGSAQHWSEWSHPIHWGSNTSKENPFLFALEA
Assay: BLI (Octet R8), receptor on SAX2 sensor
pKd: −log10 of the molar value. Bridges are numbered along the chain shown (N, C = ends). Primed or numbered codes have the meaning given here. [ ]: non-standard residue; d: D form. Ygp = O-(8x polyethylene glycol-amino)-tyrosine (Tyr, amino-capped PEG8); Yn3 = O-(9x polyethylene glycol-azido)-tyrosine (Tyr, azide-capped PEG9); Ygp″ = O-(8x polyethylene glycol-amino)-tyrosine; Yn3″ = O-(9x polyethylene glycol-azido)-tyrosine; Ygp(3) = O-(PEG8-amino)-tyrosine; Yn3(3) = O-(PEG9-azido)-tyrosine; PEG4′ = 4x polyethylene glycol; PEG9′ = 9x polyethylene glycol; hSer = N[C@@H](CCO)C(=O)O; Nle = CCCC[C@H](N)C(=O)O
OBSERVED PROPERTY: pKd

[[record]]
binder = "CMP-168, MMP2 cleaved (ligand, ends and bridges not checked; also: MMP2 cleaved, ring opened, cut site and remnants not given here, Tested after MMP2 treatment) APTSSSTKKTQLQLEHLLLDLQEILNGINNYKNPKLTR[Nle]L[hSer][Yn3″]KF[Ygp″][Nle]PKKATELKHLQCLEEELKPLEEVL[hSer]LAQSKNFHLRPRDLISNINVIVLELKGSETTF[hSer]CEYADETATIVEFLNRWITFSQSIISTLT"
experimental_result = 8.64

[[record]]
binder = "CMP-138 (ligand, bridge (positions not given here); not fully specified (bridges); numbers in words are those of the source; also: Cys58-Cys105 disulfide expected from oxidative folding) [PEG4′]SGGPGPAGMKGLPGS[PEG4′]APTSSSTKKTQLQLEHLLLDLQ[Nle]ILNGIENYKNPKLTR[Nle]L[hSer][Yn3(3)]KF[Ygp(3)][Nle]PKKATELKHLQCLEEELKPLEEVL[hSer]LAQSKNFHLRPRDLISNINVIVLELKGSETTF[hSer]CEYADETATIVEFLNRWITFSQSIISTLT"
experimental_result = 7.91

[[record]]
binder = "CMP-136 (ligand, bridge N-37; not fully specified (bridges)) [PEG9′]PLGLAG[PEG9′]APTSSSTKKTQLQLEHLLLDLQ[Nle]ILNGIENYKNPKLTR[Nle]L[hSer][Yn3]KF[Ygp][Nle]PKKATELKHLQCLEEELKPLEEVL[hSer]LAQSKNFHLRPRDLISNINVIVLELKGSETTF[hSer]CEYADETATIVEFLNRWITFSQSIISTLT"
experimental_result = 7.90

[[record]]
binder = "CMP-319 (ligand, lactam N-33; ends not checked) RGRRVANLVGAPTSSSTKKTQLQLEHLLLDLQEILNGINNYKNPKLTR[Nle]L[hSer][Yn3]KF[Ygp][Nle]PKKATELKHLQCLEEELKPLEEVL[hSer]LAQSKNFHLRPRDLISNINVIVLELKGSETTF[hSer]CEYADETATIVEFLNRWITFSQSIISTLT"
experimental_result = 8.04

